# credit: patent US20250296971A1

assayed.system: GIPR (CHO-K1-hGIPR cells) (Homo sapiens, UniProt P48546)
Construct: host or cells: CHO-K1
Sequence (P48546 22-466): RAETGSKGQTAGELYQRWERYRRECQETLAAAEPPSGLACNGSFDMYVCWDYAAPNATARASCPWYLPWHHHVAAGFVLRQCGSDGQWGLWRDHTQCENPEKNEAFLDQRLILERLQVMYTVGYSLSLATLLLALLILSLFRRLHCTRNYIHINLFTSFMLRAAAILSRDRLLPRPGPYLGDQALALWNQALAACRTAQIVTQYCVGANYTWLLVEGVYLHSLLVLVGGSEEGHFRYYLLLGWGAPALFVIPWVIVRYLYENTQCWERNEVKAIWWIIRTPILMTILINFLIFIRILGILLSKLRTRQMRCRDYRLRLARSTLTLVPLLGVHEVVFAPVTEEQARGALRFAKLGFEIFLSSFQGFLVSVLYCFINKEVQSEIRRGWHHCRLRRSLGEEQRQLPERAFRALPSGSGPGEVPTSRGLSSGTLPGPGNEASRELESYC
method.notes: FACS binding assay
assay.context: competition with 20 nM GIP-057, 4° C. for 1 hour, read-out: pIC50 Category (converted)
*1 amine or outer side, *2 acyl side, *3 side chain or, on linkers, in order; H or OH if unused. Where a SMILES comes first, the peptide text is derived from it. Bridges are numbered along the chain shown (N, C = ends). [ ]: non-standard residue; d: D form. The star is where a group is joined. X3 = O=C(O)CN1CCN(CC(=O)O)CCN(CC(=O)NCCCOCCOCCOCCCN*)CCN(CC(=O)O)CC1; mXylylene = c1cc(C[*:1])cc(C[*:2])c1; Suc = O=C(CCC(=O)[*:2])[*:1]
property.label: IC50

{"compound": "CC[C@H](C)[C@@H]1NC(=O)[C@H](CC(C)C)NC(=O)[C@@H](C)NC(=O)[C@@H](NC(=O)[C@@H](CC(C)C)NC(=O)[C@H](CCC(=O)O)NC(=O)[C@@H]2CCCN2C(=O)[C@H](Cc2c[nH]c3ccccc23)NC(=O)[C@H](Cc2c[nH]c3ccccc23)NC(=O)[C@H](CC(=O)O)NC(=O)CCC(=O)NCCCOCCOCCOCCCNC(=O)CN2CCN(CC(=O)O)CCN(CC(=O)O)CCN(CC(=O)O)CC2)CSCc2cccc(c2)CSC[C@@H](C(N)=O)NC1=O [GIP-268] ({X3-Suc}-DWWPE[dL]C[dA]LIC-NH2; linker 7-11 via mXylylene)", "assayed.system": "GIPR (CHO-K1-hGIPR cells) (Homo sapiens, UniProt P48546)", "result": "100 to 794 nM"}

Request: Name the reported IC50 value associated with the compound CSCC[C@H](N)C(=O)N[C@@H](Cc1ccc(O)cc1)C(=O)N[C@@H](CC(=O)O)C(=O)N[C@@H](Cc1c[nH]c2ccccc12)C(=O)N[C@@H](Cc1c[nH]c2ccccc12)C(=O)N1CCC[C@H]1C(=O)N[C@@H](CCC(=O)O)C(=O)N[C@@H](CC(C)C)C(=O)N[C@H]1CSCc2cccc(c2)CSC[C@@H](C(N)=O)NC(=O)[C@H](C)NC(=O)[C@H](CC(C)C)NC(=O)[C@H](C)NC1=O [GIP-337] (H-MYDWWPELCALAC-NH2; linker 9-13 via mXylylene)
Result: > 1000 nM

----------
assayed.system: GIPR (CHO-K1-hGIPR cells) (Homo sapiens)
Construct: host or cells: CHO-K1
method.notes: FACS binding assay
assay.context: competition with 20 nM GIP-057, 4° C., 1 hour, read-out: pIC50 Category (converted)
*1 amine or outer side, *2 acyl side, *3 side chain or, on linkers, in order; H or OH if unused. Where a SMILES comes first, the peptide text is derived from it. Bridges are numbered along the chain shown (N, C = ends). [ ]: non-standard residue; d: D form. The star is where a group is joined. X11 = O=C(CN1CCN2CCN3CCN(CC1)CC(=O)[O][In]([O]C(=O)C2)[O]C(=O)C3)NCCCOCCOCCOCCCN*; X3 = O=C(O)CN1CCN(CC(=O)O)CCN(CC(=O)NCCCOCCOCCOCCCN*)CCN(CC(=O)O)CC1; Trp(5-Cl) = N[C@@H](Cc1c[nH]c2ccc(Cl)cc12)C(=O)O; Pro(3S-OH) = O=C(O)[C@H]1NCC[C@@H]1O; X7 = c1cc(CSCCN[*:2])cc(C[*:1])c1; Suc = O=C(CCC(=O)[*:2])[*:1]; Aib = CC(C)(N)C(=O)O; Sar = CNCC(=O)O
property.label: IC50

{"compound": "CC[C@H](C)[C@@H]1NC(=O)[C@H](CC(C)C)NC(=O)C(C)(C)NC(=O)[C@@H](NC(=O)[C@@H](CC(C)C)NC(=O)[C@H](CCC(=O)O)NC(=O)CN(C)C(=O)[C@H](Cc2c[nH]c3ccc(Cl)cc23)NC(=O)[C@H](Cc2c[nH]c3ccccc23)NC(=O)[C@H](CC(=O)O)NC(=O)CCC(=O)NCCCOCCOCCOCCCNC(=O)CN2CCN3CCN4CCN(CC2)CC(=O)[O][In]([O]C(=O)C3)[O]C(=O)C4)CSCc2cccc(c2)CSCCNC1=O [GIP-152] ({X11-Suc}-DW[Trp(5-Cl)][Sar]E[dL]C[Aib]LI; linker 7-C via X7)", "IC50": "< 10 nM"}

Now for the compound whose IC50 we want.
Request: Name the reported IC50 value associated with the compound CC[C@H](C)[C@@H]1NC(=O)[C@H](CC(C)C)NC(=O)C(C)(C)NC(=O)[C@@H](NC(=O)[C@@H](CC(C)C)NC(=O)[C@H](CCC(=O)O)NC(=O)[C@@H]2[C@@H](O)CCN2C(=O)[C@H](Cc2c[nH]c3ccc(Cl)cc23)NC(=O)[C@H](Cc2c[nH]c3ccccc23)NC(=O)[C@H](CC(=O)O)NC(=O)CCC(=O)NCCCOCCOCCOCCCNC(=O)CN2CCN(CC(=O)O)CCN(CC(=O)O)CCN(CC(=O)O)CC2)CSCc2cccc(c2)CSCCNC1=O [GIP-102] ({X3-Suc}-DW[Trp(5-Cl)][Pro(3S-OH)]E[dL]C[Aib]LI; linker 7-C via X7)
Result: < 10 nM
